# tested.target: T1, human CCK-2 receptor (human, UniProt P32239 1-447)
# T1 construct: whole, on cells; One protein on two cell types (transfected COS-7, Jurkat); also called CCK-B receptor
# T1 sequence (looked up): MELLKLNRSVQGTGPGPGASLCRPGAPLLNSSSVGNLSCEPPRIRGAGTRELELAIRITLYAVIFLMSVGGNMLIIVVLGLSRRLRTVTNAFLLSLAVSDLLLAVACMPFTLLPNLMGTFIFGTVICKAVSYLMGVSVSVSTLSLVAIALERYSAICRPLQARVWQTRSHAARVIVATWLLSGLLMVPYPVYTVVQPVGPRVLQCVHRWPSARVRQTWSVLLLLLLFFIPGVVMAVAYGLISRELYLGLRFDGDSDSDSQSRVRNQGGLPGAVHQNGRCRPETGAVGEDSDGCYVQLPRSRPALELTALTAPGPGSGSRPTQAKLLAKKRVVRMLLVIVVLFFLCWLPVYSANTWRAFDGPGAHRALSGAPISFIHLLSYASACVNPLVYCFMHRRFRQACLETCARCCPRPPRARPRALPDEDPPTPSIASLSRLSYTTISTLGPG
# assay.text: single experiment of FIG. 21, displacement of [125I]-BH-CCK8, transfected COS-7 cells
[ ]: non-standard residue; d: D form. pGlu = O=C1CC[C@@H](C(=O)O)N1
property: pIC50
One number for each entry, as −log10 of the molar value.

// each binder listed below needs its pIC50
1. [pGlu]GPWLEEAAEAYGWMDF-NH2 (ends and bridges not checked, Gamide mutant with Glu8 and Glu9 replaced by Ala; Synthesised by Auspep) [GamideE8,9A]
2. [pGlu]GPWLEAEEEAYGWMDF-NH2 (ends and bridges not checked, Gamide mutant with Glu7 replaced by Ala; Synthesised by Auspep) [GamideE7A]

1. 7.24
2. 7.60
